These data points were gathered from PubChem BioAssay AID1745844.

system: rodent lifetime carcinogenesis bioassay, tumor incidence TD50; assay: carcinogenic potency in animals, long-term in vivo studies, CPDB compilation (AID 1745844); settings: rat; strain Wistar; males; in feed; site: forestomach; lesion: squamous-cell papilloma; dosed 52 weeks; study length 52 weeks
QUANTITY MEASURED: TD50 (mg/kg/day)
Unit mg/kg/day implied. Number only.

Memo: O=P(O)(OCC(Br)CBr)OCC(Br)CBr (stereo unspecified) , reported TD50: 60.9

----------
test system: rodent lifetime carcinogenesis bioassay, tumor incidence TD50; assay: carcinogenic potency in animals, long-term in vivo studies, CPDB compilation (AID 1745844); details: rat; strain Fischer 344; males; in drinking water; site: pancreas, exocrine; lesion: several types; types named in the paper; dosed 112 weeks; study length 112 weeks
QUANTITY MEASURED: TD50

Memo: CN(CCCC(O)c1cccnc1)N=O (stereo unspecified) , reported TD50: 0.668 mg/kg/day
